pIC50: −log10 of the molar value.
Literature roundup of Cathepsin D (Homo sapiens, UniProt P07339) data, read-out pIC50.
quantity_name: pIC50

The following molecules have reported results that may help.
CN1C(N)=N[C@](C)(c2cc(/C=C(\F)c3ncc(C#N)cc3Cl)cc(F)c2F)CS1(=O)=O    4.24
COC(C)COc1cnc(/C(F)=C/c2ccc(F)c([C@@]3(C)N=C(N)[C@@]4(CF)CC[C@@H]3S4(=O)=O)c2)cn1 (some centres unmarked)    4.11
CC1(C)C(N)=N[C@](C)(c2cc(/C=C(\F)c3cnc(Cl)cn3)ccc2F)CS1(=O)=O    3.84

[P] COc1cnc2c(Nc3ccc4c(c3)[C@@]3(CCOC(N)=N3)c3cc(C5=CCOCC5)ncc3O4)nccc2c1
[Q] CC1(C)C(N)=N[C@](C)(c2cc(/C=C(\F)c3cc4c(cn3)OCCO4)ccc2F)[C@@H](F)S1(=O)=O (single isomer, unassigned)
## Task Which shows the larger pIC50 value: P or Q ? // caller expects the label of the chosen entry
## Result Q

[I] COc1cnc(C(=O)Nc2ccc3c(c2)[C@@]2(CCSC(N)=N2)c2cc(C4=CCOCC4)nc(F)c2O3)c(C)c1
[II] COc1cnc2c(Nc3ccc4c(c3)[C@@]3(CCSC(N)=N3)c3cc(-c5cncc(F)c5)nc(F)c3O4)nccc2c1
## Task Which shows the larger pIC50 value: I or II ? // caller expects the label of the chosen entry
## Result I
(I: 3.80, II: 3.40)

[1] NC1=N[C@@]2(CCO1)c1cc(NC(=O)c3ccc(Cl)cn3)ccc1Oc1ncc(C3CC3)cc12
[2] CC1(C)C(N)=N[C@](C)(c2cc(/C=C(\F)c3ccc(C#N)cn3)ccc2F)CS1(=O)=O
## Task Which shows the larger pIC50 value: 1 or 2 ? // caller expects the label of the chosen entry
## Result 2
